# Test system: BT-474
# Setup Conditions: 72 h
For each entry below, report its EC50, CellTiter-Glo value.
Answer in nM, number only, no unit symbol.

Query: EC50, CellTiter-Glo; subject: Nc1nc(Cl)nc2c1ncn2[C@@H]1O[C@H](CO)[C@@H](O)[C@@H]1F
196

Suppose we examine the compound COc1cc(Nc2ncc(F)c(Nc3ccc4c(n3)N(COP(=O)(O)O)C(=O)C(C)(C)O4)n2)cc(OC)c1OC ; what EC50, CellTiter-Glo value has been reported?
1160

I have this compound here, CC[C@@H]1C(=O)N(C)c2cnc(Nc3ccc(C(=O)N[C@H]4CC[C@H](N5CCN(CC6CC6)CC5)CC4)cc3OC)nc2N1C(C)C , and I need its recorded EC50, CellTiter-Glo.
7.02

# lookup: EC50, CellTiter-Glo of N[C@@H](Cc1ccc(N(CCCl)CCCl)cc1)C(=O)O
313

====

I'd be grateful if you could share measured normalised viability for these entries.
# System: CAL-120
# Test Summary: normalised viability (% of control), CellTiter-Blue; higher = more viable cells (100 = DMSO, 0 = benzethonium chloride kill control)
# Setup Conditions: incubation time: 72 h
Express the result in % but write the number alone.

Suppose we examine the compound COc1cc2c(Oc3ccc(NC(=O)C4(C(=O)Nc5ccc(F)cc5)CC4)cc3F)ccnc2cc1OCCCN1CCOCC1 [Foretinib] (0.1 nM) ; what normalised viability value has been reported?
92.1

Quick one: normalised viability for CC(C)C[C@H](NC(=O)[C@H](CCc1ccccc1)NC(=O)CN1CCOCC1)C(=O)N[C@@H](Cc1ccccc1)C(=O)N[C@@H](CC(C)C)C(=O)[C@@]1(C)CO1 [Carfilzomib] (0.1 nM) ?
89.8

# normalised viability lookup, item NC1(c2ccc(-c3nc4ccn5c(=O)[nH]nc5c4cc3-c3ccccc3)cc2)CCC1 [MK-2206] (0.1 nM)
106

Return reported normalised viability; argument: CCN(CC)CCOc1ccc(C(=C(Cl)c2ccccc2)c2ccccc2)cc1 [Clomifene] (1 nM)
90.2

What does the data say about its normalised viability? Entry: O=NN(CCCl)C(=O)NC1CCCCC1 [Lomustine] (1 nM)
91.6

Quick check: normalised viability of CC/C(=C(\c1ccccc1)c1ccc(OCCN(C)C)cc1)c1ccccc1 [Tamoxifen] (1 nM) ?
104

====

Kindly supply the reported drug sensitivity score values for the records listed here.
# Tested on: HCC1143
# Test Summary: drug sensitivity score (DSS), CellTiter-Blue viability (DSS (AUC-based score)); higher = stronger viability inhibition; extreme values may be limits of the assay
# Setup Conditions: incubation time: 72 h
Answer with the value's number alone.

Name the recorded drug sensitivity score for Nc1nc(Cl)nc2c1ncn2[C@@H]1O[C@H](CO)[C@@H](O)[C@@H]1F .
9.25

Which drug sensitivity score is reported for this compound? Cc1c(N)nc([C@H](CC(N)=O)NC[C@H](N)C(N)=O)nc1C(=O)N[C@H](C(=O)N[C@H](C)[C@@H](O)[C@H](C)C(=O)N[C@H](C(=O)NCCc1nc(-c2nc(C(=O)NCCC[S+](C)C)cs2)cs1)[C@@H](C)O)[C@@H](OC1OC(CO)C(O)C(O)C1OC1OC(CO)C(O)C(OC(N)=O)C1O)c1cnc[nH]1 (stereo partly specified)
9.95

I have this compound here, Cc1c(C(=O)Nc2ccc(N3C[C@@H](C)O[C@@H](C)C3)nc2)cccc1-c1ccc(OC(F)(F)F)cc1 , and I need its recorded drug sensitivity score.
0

Which drug sensitivity score is reported for this compound? Cn1nnc2c(C(N)=O)ncn2c1=O [Temozolomide]
0

Given CC[C@@H]1C(=O)N(C)c2cnc(Nc3ccc(C(=O)N[C@H]4CC[C@H](N5CCN(CC6CC6)CC5)CC4)cc3OC)nc2N1C(C)C , state its recorded drug sensitivity score.
13.4

Please report the recorded drug sensitivity score for O=C(c1cc(Cc2n[nH]c(=O)c3ccccc23)ccc1F)N1CCN(C(=O)C2CC2)CC1 .
0
